- tested_system: G-protein coupled receptor 55 (Homo sapiens)
- protocol_description: Antagonist activity at human GPR55 expressed in HEK293 cells coexpressing serum response element assessed as inhibition of LPI-induced MAPK/ERK signalling pathway by measuring SRE response incubated for 5 hrs in serum-free medium by luciferin based bioluminescence analysis
- Format: cell-based
endpoint_name: IC50 (µM)
Reply numerically in µM, unit not repeated.

molecule=Cc1nc(N2CCN(C(=O)c3ccco3)CC2)c2c3c(sc2n1)CC(C)(C)CC3 tested_system="G-protein coupled receptor 55 (Homo sapiens)" endpoint_name=IC50 value=1.5

Identify measured IC50 corresponding to "Cc1nc(N2CCN(C(=O)c3ccco3)CC2)c2c3c(sc2n1)CCCC3" 7.5

###

- tested_system: G-protein coupled receptor 55 (Homo sapiens, UniProt Q9Y2T6)
- Sequence (Q9Y2T6 whole entry): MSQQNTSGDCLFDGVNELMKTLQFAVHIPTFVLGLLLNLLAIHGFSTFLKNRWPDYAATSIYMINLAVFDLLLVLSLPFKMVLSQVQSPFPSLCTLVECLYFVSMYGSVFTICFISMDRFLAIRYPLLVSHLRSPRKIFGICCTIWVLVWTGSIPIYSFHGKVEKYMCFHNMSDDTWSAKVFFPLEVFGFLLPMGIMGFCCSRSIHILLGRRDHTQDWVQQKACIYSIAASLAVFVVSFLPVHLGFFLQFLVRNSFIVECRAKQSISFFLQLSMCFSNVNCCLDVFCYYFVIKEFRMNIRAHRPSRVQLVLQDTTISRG
- protocol_description: Inverse agonist activity at human GPR55 expressed in HEK293 cells coexpressing serum response element assessed as reduction in MAPK/ERK signalling pathway by measuring SRE response incubated for 5 hrs in serum-free medium by luciferin based bioluminescence analysis
endpoint_name: EC50 (nM)
Express it in nM; write the number only.

Identify measured EC50 associated with "Cc1nc(N2CCN(C(=O)c3ccco3)CC2)c2c3c(sc2n1)CC(C)(C)CC3" 900

###

Listed here are compounds together with their documented pKi.
- tested_system: Cannabinoid receptor 1 (Homo sapiens, UniProt P21554)
- Sequence (P21554 whole entry): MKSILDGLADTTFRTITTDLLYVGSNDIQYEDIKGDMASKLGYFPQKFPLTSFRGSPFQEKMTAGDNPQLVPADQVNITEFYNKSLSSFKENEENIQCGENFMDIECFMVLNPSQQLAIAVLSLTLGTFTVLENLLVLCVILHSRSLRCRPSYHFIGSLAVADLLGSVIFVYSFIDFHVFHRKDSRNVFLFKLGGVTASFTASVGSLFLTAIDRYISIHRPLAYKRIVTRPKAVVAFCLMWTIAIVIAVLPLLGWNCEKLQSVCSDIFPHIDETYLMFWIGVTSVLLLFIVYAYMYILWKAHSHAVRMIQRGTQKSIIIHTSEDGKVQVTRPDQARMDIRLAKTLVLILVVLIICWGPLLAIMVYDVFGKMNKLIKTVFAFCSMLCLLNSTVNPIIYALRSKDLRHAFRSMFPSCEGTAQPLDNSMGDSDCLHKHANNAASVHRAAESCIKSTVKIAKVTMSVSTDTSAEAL
pKi: −log10 of the molar value.

# annotated cases, reported pKi shown
molecule=Cc1nc(N2CCCN(C(=O)c3ccco3)CC2)c2c3c(sc2n1)CCCC3 tested_system="Cannabinoid receptor 1 (Homo sapiens, UniProt P21554)" value="< 5.40"
molecule=O=C(c1ccco1)N1CCN(c2ncnc3sc4c(c23)CCCC4)CC1 tested_system="Cannabinoid receptor 1 (Homo sapiens, UniProt P21554)" value="< 5.40"
molecule=COCc1nc(N2CCN(C(=O)c3ccco3)CC2)c2c3c(sc2n1)CC(C)(C)CC3 tested_system="Cannabinoid receptor 1 (Homo sapiens, UniProt P21554)" value="< 5.40"

Report its pKi with Cannabinoid receptor 1 (Homo sapiens, UniProt P21554) as the test system: "Cc1nc(N2CCN(C(=O)c3ccco3)CC2)c2c3c(sc2n1)CC(C)(C)CC3" < 5.40
